Tested on: 422866-222-R5-J1-PDC complex spheroid viability
experimentalDetails: Anticancer human tumor 422866-222-R5-J1-PDC patient-derived pancreatic adenocarcinoma cell line growth inhibition [POLQ]
measurementParameters: second compound 3.16 µM; first compound 3.16 µM; stronger effect = lower value
What viability, T/C was measured for each of the following?
Answers are plain numbers, in %.

Recorded results for 3 compounds are shown here.
compound: CC1COCCN1c1cc(C2(O)CC3CCC(C2)O3)c2cnn(-c3ccn[nH]3)c2n1 (stereo not given) + Cc1cccc(N(C)C(=O)C2C(O)CCN2c2nc(C)cc(C(F)(F)F)c2C#N)c1
viability, T/C (%): 78.2
//
compound: C=CC(=O)N1CCN(c2nc(=O)n(-c3c(C)ccnc3C(C)C)c3nc(-c4c(O)cccc4F)c(F)cc23)C(C)C1 (stereo not given) + COC1C(OC(N)=O)C(O)C(Oc2ccc3c(O)c(NC(=O)c4ccc(O)c(CC=C(C)C)c4)c(=O)oc3c2C)OC1(C)C
viability, T/C (%): 28.2
//
compound: CCc1cc2c(N3CCc4c(cc(Cn5ccnc5)cc4-c4cn(C)nc4C(F)(F)F)C3=O)cc(C)nc2c(OC)n1 + Cc1cccc(N(C)C(=O)C2C(O)CCN2c2nc(C)cc(C(F)(F)F)c2C#N)c1
viability, T/C (%): 99.8

Batch: viability, T/C for all items listed.
1. O=C(Nc1ccc(O)c(NS(=O)(=O)c2ccc(F)cc2)c1)c1ccc(-c2ccccc2)cc1 + Nc1ccc(C#CCN(C(=O)Cc2ncc(C(F)(F)F)cc2C(F)(F)F)c2ccc(F)cc2)nn1
2. CCc1cc2c(N3CCc4c(cc(Cn5ccnc5)cc4-c4cn(C)nc4C(F)(F)F)C3=O)ccnc2c(OC)n1 + Cc1cccc(N(C)C(=O)C2C(O)CCN2c2nc(C)cc(C(F)(F)F)c2C#N)c1

OUT:
103
108

---

System: 422866-222-R5-J1-PDC complex spheroid viability
experimentalDetails: Anticancer human tumor 422866-222-R5-J1-PDC cell line growth inhibition [POLQ];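 note: spheroids exposed to compounds for one week before readout; percent of DMSO vehicle wells luminescence so 100% = untreated viability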
measurementParameters: second compound 0.0316 µM; first compound 0.316 µM; stronger effect = lower value
resultType: viability, T/C (%)
Numbers only, in %.

Recorded results for 4 compounds are shown here.
compound: Nc1ccn(C2OC(CO)C(O)C2(F)F)c(=O)n1 (stereo not given) + Cc1cccc(N(C)C(=O)C2C(O)CCN2c2nc(C)cc(C(F)(F)F)c2C#N)c1
viability, T/C [%]: 40.4

compound: COc1ccc([C@@H](O)c2cc(-c3ncnc4cc(N5CCOCC5)ccc34)c(F)cc2Cl)nn1 + COC1C(OC(N)=O)C(O)C(Oc2ccc3c(O)c(NC(=O)c4ccc(O)c(CC=C(C)C)c4)c(=O)oc3c2C)OC1(C)C
viability, T/C [%]: 76.5

compound: O=c1[nH]cc(F)c(=O)[nH]1 + COC1C(OC(N)=O)C(O)C(Oc2ccc3c(O)c(NC(=O)c4ccc(O)c(CC=C(C)C)c4)c(=O)oc3c2C)OC1(C)C
viability, T/C [%]: 102

compound: CCCS(=O)(=O)Nc1ccc(F)c(C(=O)c2c[nH]c3ncc(-c4ccc(Cl)cc4)cc23)c1F + COC1C(OC(N)=O)C(O)C(Oc2ccc3c(O)c(NC(=O)c4ccc(O)c(CC=C(C)C)c4)c(=O)oc3c2C)OC1(C)C
viability, T/C [%]: 132

IN: Return reported viability, T/C; argument: C=CC(=O)N1CCN(c2nc(=O)n(-c3c(C)ccnc3C(C)C)c3nc(-c4c(O)cccc4F)c(F)cc23)C(C)C1 (stereo not given) + Nc1ccc(C#CCN(C(=O)Cc2ncc(C(F)(F)F)cc2C(F)(F)F)c2ccc(F)cc2)nn1
OUT: 28.3

---

Tested on: 422866-222-R5-J1-PDC complex spheroid viability
experimentalDetails: Anticancer human tumor 422866-222-R5-J1-PDC cell line growth inhibition [POLQ];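 note: spheroids exposed to compounds for one week before readout; percent of DMSO vehicle wells luminescence so 100% = untreated viability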
measurementParameters: second compound 0.1 µM; first compound 1 µM; stronger effect = lower value
Description: Multicellular complex tumor spheroid response to Polymerase (POL) inhibitors (novobiocin, ART-558, RP6685) in combination with a variety of drugs and investigational agents in selected tumor cell lines The POL inhibitors (novobiocin, ART-558, and RP6685) were evaluated both individually and in combination with standard of care and investigational anticancer small molecules within a complex spheroid model of solid tumors. . […]
What viability, T/C was measured for each of the following?
Please answer using a numeric value trailed by its unit.

Recorded results for 3 molecules are shown here.
molecule: C=CCn1c(=O)c2cnc(Nc3ccc(N4CCN(C)CC4)cc3)nc2n1-c1cccc(C(C)(C)O)n1 + Cc1cccc(N(C)C(=O)C2C(O)CCN2c2nc(C)cc(C(F)(F)F)c2C#N)c1
viability, T/C: 35.1%
--
molecule: COc1cccc(OCCCN)c1-c1cc(Nc2cnc(C#N)cn2)n[nH]1 + Nc1ccc(C#CCN(C(=O)Cc2ncc(C(F)(F)F)cc2C(F)(F)F)c2ccc(F)cc2)nn1
viability, T/C: 54.3%
--
molecule: CCCS(=O)(=O)Nc1ccc(F)c(C(=O)c2c[nH]c3ncc(-c4ccc(Cl)cc4)cc23)c1F + Cc1cccc(N(C)C(=O)C2C(O)CCN2c2nc(C)cc(C(F)(F)F)c2C#N)c1
viability, T/C: 138%

Batch: viability, T/C for all items listed.
1. COc1ccc([C@@H](O)c2cc(-c3ncnc4cc(N5CCOCC5)ccc34)c(F)cc2Cl)nn1 + Cc1cccc(N(C)C(=O)C2C(O)CCN2c2nc(C)cc(C(F)(F)F)c2C#N)c1
2. C=CC(=O)N1CCN(c2nc(=O)n(-c3c(C)ccnc3C(C)C)c3nc(-c4c(O)cccc4F)c(F)cc23)C(C)C1 (stereo unspecified) + COC1C(OC(N)=O)C(O)C(Oc2ccc3c(O)c(NC(=O)c4ccc(O)c(CC=C(C)C)c4)c(=O)oc3c2C)OC1(C)C

OUT:
1: 64.5%; 2: 23.7%

Batch: viability, T/C for all items listed.
1. CCc1cc2c(N3CCc4c(cc(Cn5ccnc5)cc4-c4cn(C)nc4C(F)(F)F)C3=O)ccnc2c(OC)n1 + COC1C(OC(N)=O)C(O)C(Oc2ccc3c(O)c(NC(=O)c4ccc(O)c(CC=C(C)C)c4)c(=O)oc3c2C)OC1(C)C
2. CC(C)n1c(=O)n(C)c2cnc3cc(F)c(-c4ccc(OCCCN5CCCCC5)nc4)cc3c21 + COC1C(OC(N)=O)C(O)C(Oc2ccc3c(O)c(NC(=O)c4ccc(O)c(CC=C(C)C)c4)c(=O)oc3c2C)OC1(C)C
3. COc1cccc(OCCCN)c1-c1cc(Nc2cnc(C#N)cn2)n[nH]1 + Cc1cccc(N(C)C(=O)C2C(O)CCN2c2nc(C)cc(C(F)(F)F)c2C#N)c1

OUT:
1: 104%; 2: 37.8%; 3: 45.6%

Batch: viability, T/C for all items listed.
1. COc1ccc([C@@H](O)c2cc(-c3ncnc4cc(N5CCOCC5)ccc34)c(F)cc2Cl)nn1 + Nc1ccc(C#CCN(C(=O)Cc2ncc(C(F)(F)F)cc2C(F)(F)F)c2ccc(F)cc2)nn1
2. COc1cc2cc(C(=O)CCC(=O)O)sc2cc1OC + COC1C(OC(N)=O)C(O)C(Oc2ccc3c(O)c(NC(=O)c4ccc(O)c(CC=C(C)C)c4)c(=O)oc3c2C)OC1(C)C
3. CCc1cc2c(N3CCc4c(cc(Cn5ccnc5)cc4-c4cn(C)nc4C(F)(F)F)C3=O)ccnc2c(OC)n1 + Cc1cccc(N(C)C(=O)C2C(O)CCN2c2nc(C)cc(C(F)(F)F)c2C#N)c1
4. CC1COCCN1c1cc(C2(S(C)(=N)=O)CC2)nc(-c2ccnc3[nH]ccc23)n1 (stereo unspecified) + Cc1cccc(N(C)C(=O)C2C(O)CCN2c2nc(C)cc(C(F)(F)F)c2C#N)c1
5. CCCS(=O)(=O)Nc1ccc(F)c(C(=O)c2c[nH]c3ncc(-c4ccc(Cl)cc4)cc23)c1F + Nc1ccc(C#CCN(C(=O)Cc2ncc(C(F)(F)F)cc2C(F)(F)F)c2ccc(F)cc2)nn1
6. COc1cc(C2c3cc4c(cc3C(OC3OC5COC(C)OC5C(O)C3O)C3COC(=O)C23)OCO4)cc(OC)c1O (stereo unspecified) + Cc1cccc(N(C)C(=O)C2C(O)CCN2c2nc(C)cc(C(F)(F)F)c2C#N)c1
7. CCc1cc2c(N3CCc4c(cc(Cn5ccnc5)cc4-c4cn(C)nc4C(F)(F)F)C3=O)cc(C)nc2c(OC)n1 + Cc1cccc(N(C)C(=O)C2C(O)CCN2c2nc(C)cc(C(F)(F)F)c2C#N)c1
8. CNCc1ccc(-c2[nH]c3cc(F)cc4c3c2CCNC4=O)cc1 + Cc1cccc(N(C)C(=O)C2C(O)CCN2c2nc(C)cc(C(F)(F)F)c2C#N)c1

OUT:
1: 59.8%; 2: 105%; 3: 112%; 4: 74.4%; 5: 182%; 6: 58.6%; 7: 88.7%; 8: 86%

Batch: viability, T/C for all items listed.
1. O=C(Nc1ccc(O)c(NS(=O)(=O)c2ccc(F)cc2)c1)c1ccc(-c2ccccc2)cc1 + Nc1ccc(C#CCN(C(=O)Cc2ncc(C(F)(F)F)cc2C(F)(F)F)c2ccc(F)cc2)nn1
2. CCc1c2c(nc3ccc(O)cc13)-c1cc3c(c(=O)n1C2)COC(=O)[C@]3(O)CC + Nc1ccc(C#CCN(C(=O)Cc2ncc(C(F)(F)F)cc2C(F)(F)F)c2ccc(F)cc2)nn1
3. CC1COCCN1c1cc(C2(S(C)(=N)=O)CC2)nc(-c2ccnc3[nH]ccc23)n1 (stereo unspecified) + Nc1ccc(C#CCN(C(=O)Cc2ncc(C(F)(F)F)cc2C(F)(F)F)c2ccc(F)cc2)nn1
4. COc1cccc2c1C(=O)c1c(O)c3c(c(O)c1C2=O)CC(O)(C(=O)CO)CC3OC1CC(N)C(O)C(C)O1 (stereo unspecified) + Cc1cccc(N(C)C(=O)C2C(O)CCN2c2nc(C)cc(C(F)(F)F)c2C#N)c1
5. CCCS(=O)(=O)Nc1ccc(F)c(C(=O)c2c[nH]c3ncc(-c4ccc(Cl)cc4)cc23)c1F + COC1C(OC(N)=O)C(O)C(Oc2ccc3c(O)c(NC(=O)c4ccc(O)c(CC=C(C)C)c4)c(=O)oc3c2C)OC1(C)C

OUT:
90.5%
20.6%
58.9%
22.6%
149%
